FYI, the data here is from ChEMBL document CHEMBL1135601.

Catalogue of concentration at 3 day readings, one per entry.
Assay Remarks: Biodistribution after day 3 in mouse blood
Assay type: ADME, organism-based
Readout Name: concentration at 3 day (ng/g)

INSERT INTO measurements (compound, readout_name, output_unit, value_measured) VALUES
  ('CCc1c(CC)c2cc3nc(cc4[nH]c(c(C)c4CC)c4[nH]c(cc5nc(cc1[nH]2)C(CCC(=O)N(CCO)CCO)=C5C)c(CC)c4C)C(C)=C3CCC(=O)N(CCO)CCO [SAPPHYRIN]', 'concentration at 3 day', 'ng/g', 900),
  ('CCc1c(CC)c2cc3nc(cc4[nH]c(c(C)c4CC)c4[nH]c(cc5nc(cc1[nH]2)C(CCC(=O)NCCOCCOCCO)=C5C)c(CC)c4C)C(C)=C3CCC(=O)NCCOCCOCCO', 'concentration at 3 day', 'ng/g', 9300),
  ('CCC1=C(CC)c2cc3[nH]c(cc4[nH]c(c(C)c4CC)c4[nH]c(cc5nc(cc1n2)C(CCC(=O)NCCOCCOCCN)=C5C)c(CC)c4C)c(C)c3CCC(=O)NCCOCCOCCN', 'concentration at 3 day', 'ng/g', 3020);
